# condition.details: in acetic acid, 288.15 K
endpoint.label: solubility (mole fraction)
Answer with a bare number; do not write a unit.

Fill in: solubility (mole fraction) of `O=C1C=CC(=O)O1` is ___
0.0281

====

# condition.details: in DMF, 313.15 K
endpoint.label: solubility (mole fraction)
Answer with a bare number; do not write a unit.

Fill in: solubility (mole fraction) of `O=C1C=CC(=O)O1` is ___
0.125

====

# condition.details: in methanol, 278.15 K
endpoint.label: solubility (mole fraction)
Answer with a bare number; do not write a unit.

Fill in: solubility (mole fraction) of `O=C1C=CC(=O)O1` is ___
0.0211

====

# condition.details: in isopropanol, 303.15 K
endpoint.label: solubility (mole fraction)
Answer with a bare number; do not write a unit.

Fill in: solubility (mole fraction) of `O=C1C=CC(=O)O1` is ___
0.0321

====

# condition.details: in acetone, 318.15 K
endpoint.label: solubility (mole fraction)
Answer with a bare number; do not write a unit.

Fill in: solubility (mole fraction) of `O=C1C=CC(=O)O1` is ___
0.0977

====

# condition.details: in acetonitrile, 278.15 K
endpoint.label: solubility (mole fraction)
Answer with a bare number; do not write a unit.

Fill in: solubility (mole fraction) of `O=C1C=CC(=O)O1` is ___
0.012

====

# condition.details: in acetic acid, 323.15 K
endpoint.label: solubility (mole fraction)
Answer with a bare number; do not write a unit.

Fill in: solubility (mole fraction) of `O=C1C=CC(=O)O1` is ___
0.146

====

# condition.details: in methanol, 293.15 K
endpoint.label: solubility (mole fraction)
Answer with a bare number; do not write a unit.

Fill in: solubility (mole fraction) of `O=C1C=CC(=O)O1` is ___
0.0465

====

# condition.details: in n-butanol, 308.15 K
endpoint.label: solubility (mole fraction)
Answer with a bare number; do not write a unit.

Fill in: solubility (mole fraction) of `O=C1C=CC(=O)O1` is ___
0.033

====

# condition.details: in acetic acid, 303.15 K
endpoint.label: solubility (mole fraction)
Answer with a bare number; do not write a unit.

Fill in: solubility (mole fraction) of `O=C1C=CC(=O)O1` is ___
0.0605

====

# condition.details: in isopropanol, 293.15 K
endpoint.label: solubility (mole fraction)
Answer with a bare number; do not write a unit.

Fill in: solubility (mole fraction) of `O=C1C=CC(=O)O1` is ___
0.0178

====

# condition.details: in acetonitrile, 313.15 K
endpoint.label: solubility (mole fraction)
Answer with a bare number; do not write a unit.

Fill in: solubility (mole fraction) of `O=C1C=CC(=O)O1` is ___
0.0873

====

# condition.details: in acetone, 303.15 K
endpoint.label: solubility (mole fraction)
Answer with a bare number; do not write a unit.

Fill in: solubility (mole fraction) of `O=C1C=CC(=O)O1` is ___
0.0453

====

# condition.details: in acetonitrile, 293.15 K
endpoint.label: solubility (mole fraction)
Answer with a bare number; do not write a unit.

Fill in: solubility (mole fraction) of `O=C1C=CC(=O)O1` is ___
0.0307

====

# condition.details: in isopropanol, 283.15 K
endpoint.label: solubility (mole fraction)
Answer with a bare number; do not write a unit.

Fill in: solubility (mole fraction) of `O=C1C=CC(=O)O1` is ___
0.00942

====

# condition.details: in isopropanol, 318.15 K
endpoint.label: solubility (mole fraction)
Answer with a bare number; do not write a unit.

Fill in: solubility (mole fraction) of `O=C1C=CC(=O)O1` is ___
0.0712

====

# condition.details: in acetone, 308.15 K
endpoint.label: solubility (mole fraction)

Fill in: solubility (mole fraction) of `O=C1C=CC(=O)O1` is ___
0.0599

====

# condition.details: in n-butanol, 323.15 K
endpoint.label: solubility (mole fraction)
Answer with a bare number; do not write a unit.

Fill in: solubility (mole fraction) of `O=C1C=CC(=O)O1` is ___
0.0828

====

# condition.details: in acetonitrile, 308.15 K
endpoint.label: solubility (mole fraction)
Answer with a bare number; do not write a unit.

Fill in: solubility (mole fraction) of `O=C1C=CC(=O)O1` is ___
0.0682

====

# condition.details: in isopropanol, 278.15 K
endpoint.label: solubility (mole fraction)
Answer with a bare number; do not write a unit.

Fill in: solubility (mole fraction) of `O=C1C=CC(=O)O1` is ___
0.00617

====

# condition.details: in ethyl acetate, 313.15 K
endpoint.label: solubility (mole fraction)
Answer with a bare number; do not write a unit.

Fill in: solubility (mole fraction) of `O=C1C=CC(=O)O1` is ___
0.0665

====

# condition.details: in acetonitrile, 318.15 K
endpoint.label: solubility (mole fraction)
Answer with a bare number; do not write a unit.

Fill in: solubility (mole fraction) of `O=C1C=CC(=O)O1` is ___
0.111

====

# condition.details: in acetone, 323.15 K
endpoint.label: solubility (mole fraction)
Answer with a bare number; do not write a unit.

Fill in: solubility (mole fraction) of `O=C1C=CC(=O)O1` is ___
0.124

====

# condition.details: in isopropanol, 288.15 K
endpoint.label: solubility (mole fraction)
Answer with a bare number; do not write a unit.

Fill in: solubility (mole fraction) of `O=C1C=CC(=O)O1` is ___
0.013

====

# condition.details: in ethyl acetate, 288.15 K
endpoint.label: solubility (mole fraction)
Answer with a bare number; do not write a unit.

Fill in: solubility (mole fraction) of `O=C1C=CC(=O)O1` is ___
0.017

====

# condition.details: in methanol, 298.15 K
endpoint.label: solubility (mole fraction)

Fill in: solubility (mole fraction) of `O=C1C=CC(=O)O1` is ___
0.0582

====

# condition.details: in n-butanol, 313.15 K
endpoint.label: solubility (mole fraction)
Answer with a bare number; do not write a unit.

Fill in: solubility (mole fraction) of `O=C1C=CC(=O)O1` is ___
0.0455

====

# condition.details: in DMF, 308.15 K
endpoint.label: solubility (mole fraction)
Answer with a bare number; do not write a unit.

Fill in: solubility (mole fraction) of `O=C1C=CC(=O)O1` is ___
0.104

====

# condition.details: in methanol, 283.15 K
endpoint.label: solubility (mole fraction)
Answer with a bare number; do not write a unit.

Fill in: solubility (mole fraction) of `O=C1C=CC(=O)O1` is ___
0.0282

====

# condition.details: in ethyl acetate, 318.15 K
endpoint.label: solubility (mole fraction)
Answer with a bare number; do not write a unit.

Fill in: solubility (mole fraction) of `O=C1C=CC(=O)O1` is ___
0.0857

====

# condition.details: in n-butanol, 288.15 K
endpoint.label: solubility (mole fraction)
Answer with a bare number; do not write a unit.

Fill in: solubility (mole fraction) of `O=C1C=CC(=O)O1` is ___
0.00796

====

# condition.details: in n-butanol, 298.15 K
endpoint.label: solubility (mole fraction)
Answer with a bare number; do not write a unit.

Fill in: solubility (mole fraction) of `O=C1C=CC(=O)O1` is ___
0.0168
